tested on: UniProt:P27338
Sequence (P27338 whole entry): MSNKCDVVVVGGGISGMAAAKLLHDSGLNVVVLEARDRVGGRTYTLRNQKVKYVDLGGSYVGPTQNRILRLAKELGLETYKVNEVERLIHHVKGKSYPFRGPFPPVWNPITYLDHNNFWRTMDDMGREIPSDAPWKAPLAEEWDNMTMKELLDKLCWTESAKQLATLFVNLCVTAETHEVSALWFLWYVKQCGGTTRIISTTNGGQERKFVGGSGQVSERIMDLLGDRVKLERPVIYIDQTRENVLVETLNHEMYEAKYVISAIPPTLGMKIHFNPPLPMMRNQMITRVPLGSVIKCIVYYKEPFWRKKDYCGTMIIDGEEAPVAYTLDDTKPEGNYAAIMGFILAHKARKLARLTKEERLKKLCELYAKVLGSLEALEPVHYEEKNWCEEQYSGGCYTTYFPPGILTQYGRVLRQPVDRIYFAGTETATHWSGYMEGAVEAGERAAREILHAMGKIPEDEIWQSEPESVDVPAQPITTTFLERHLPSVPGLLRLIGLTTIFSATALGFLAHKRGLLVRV
measured endpoint: IC50 (nM)
Note: unit nM is implicit; provide only the numeric part.

The compound listed as Cc1ccc(C2=NO[C@@H](c3ccc(Cl)c(Cl)c3)C2)cc1 has a reported IC50 of 1.9
